Origin of measurements: patent US20250195521A1

- targetSystem: NRAS Q61R (Homo sapiens (Human), UniProt P01111+P62937, Q61R)
- Sequence (P01111 whole entry Q61R): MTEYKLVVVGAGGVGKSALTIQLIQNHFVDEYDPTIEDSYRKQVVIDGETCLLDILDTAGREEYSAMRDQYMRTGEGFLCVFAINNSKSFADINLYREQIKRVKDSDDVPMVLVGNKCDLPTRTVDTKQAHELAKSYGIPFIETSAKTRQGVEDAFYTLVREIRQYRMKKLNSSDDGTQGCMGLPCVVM
- Sequence (P62937 whole entry): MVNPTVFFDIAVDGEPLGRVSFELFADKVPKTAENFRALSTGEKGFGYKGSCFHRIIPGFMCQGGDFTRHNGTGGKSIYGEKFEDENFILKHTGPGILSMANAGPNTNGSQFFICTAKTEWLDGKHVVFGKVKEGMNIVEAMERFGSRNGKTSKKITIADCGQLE
- assayName: Ras-Raf disruption/FRET/MOA assay (BRAF RBD, Cyclophilin A)
- Assay type: biochemical
- Procedure: Compound is present in plate wells as a 10-point 3-fold dilution series starting at a final concentration of 30 μM. After incubation at 25° C. for 3 hours, a mixture of Anti-His Eu—W1024 and anti-GST allophycocyanin is then added to assay sample wells at final concentrations of 10 nM and 50 nM, respectively, and the reaction incubated for an additional 1.5 hours. […]
Consider the following molecules; for each one, report its IC50.

Query: // IC50 lookup, key: CCn1c(-c2cccnc2[C@H](C)OC)c2c3cc(ccc31)-c1csc(n1)C[C@H](NC(=O)[C@H](C(C)C)N(C)C(=O)N1C[C@@H]3OCCN(C)[C@H]3C1)C(=O)N1CCC[C@H](N1)C(=O)OCC(C)(C)C2
Reply: 100 to 1000 nM

Query: // IC50 lookup, key: CCn1c(-c2cccnc2[C@H](C)OC)c2c3cc(ccc31)-c1csc(n1)C[C@H](NC(=O)C1(F)CCC1)C(=O)N1CCC[C@H](N1)C(=O)OCC(C)(C)C2
Reply: 100 to 1000 nM

Query: // IC50 lookup, key: CCn1c(-c2cccnc2[C@H](C)OC)c2c3cc(ccc31)-c1csc(n1)C[C@H](NC(=O)[C@H](C(C)C)N1CCC3(COC3)C1)C(=O)N1CCC[C@H](N1)C(=O)OCC(C)(C)C2
Reply: 10 to 100 nM

Query: // IC50 lookup, key: CCn1c(-c2cccnc2[C@H](C)OC)c2c3cc(ccc31)-c1csc(n1)C[C@H](NC(=O)[C@H](C(C)C)N(C)C(=O)[C@@H]1OCC[C@@H]1c1ccccc1)C(=O)N1CCC[C@H](N1)C(=O)OCC(C)(C)C2
Reply: 100 to 1000 nM

Query: // IC50 lookup, key: CCn1c(-c2cccnc2[C@H](C)OC)c2c3cc(ccc31)-c1csc(n1)C[C@H](NC(=O)[C@H](C(C)C)N(CCc1ccncc1)C1CC1)C(=O)N1CCC[C@H](N1)C(=O)OCC(C)(C)C2
Reply: 100 to 1000 nM

* * *

- targetSystem: KRAS G12C (Homo sapiens (Human), UniProt P01116+P62937, G12C)
- Sequence (P01116-2 other isoform, or with tags, fused parts or gaps G12C, one chain of several): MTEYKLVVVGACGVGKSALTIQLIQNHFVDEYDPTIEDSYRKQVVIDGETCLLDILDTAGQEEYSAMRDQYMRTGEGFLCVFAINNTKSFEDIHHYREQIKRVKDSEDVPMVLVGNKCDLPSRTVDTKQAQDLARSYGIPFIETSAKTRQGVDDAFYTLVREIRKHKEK
- assayName: Ras-Raf disruption/FRET/MOA assay (BRAF RBD, Cyclophilin A)
- Type: biochemical
- appliedConditions: read-out: KRAS G12C FRET IC50
pIC50: −log10 of the molar value.
readoutName: pIC50

Query: // pIC50 lookup, key: CCn1c(-c2cnccc2COC)c2c3cc(ccc31)-c1cc(O)cc(c1)C[C@H](NC(=O)[C@H](C(C)C)N(C)C(=O)C1(C)COC1)C(=O)N1CCC[C@H](N1)C(=O)OCC(C)(C)C2
Reply: 6.00 to 7.00

Query: // pIC50 lookup, key: CCn1c(-c2ccccc2CCOC)c2c3cc(ccc31)-c1cc(O)cc(c1)C[C@H](NC(=O)[C@H](C(C)C)N(C)C(=O)CNC(=N)N)C(=O)N1CCC[C@H](N1)C(=O)OCC(C)(C)C2
Reply: 6.00 to 7.00

Query: // pIC50 lookup, key: CCn1c(-c2cnccc2COC)c2c3cc(ccc31)-c1cc(O)cc(c1)C[C@H](NC(=O)[C@@H](NC(=O)c1ncco1)C(C)C)C(=O)N1CCC[C@H](N1)C(=O)OCC(C)(C)C2
Reply: 5.00 to 6.00

Query: // pIC50 lookup, key: CCn1c(-c2cccnc2[C@H](C)OC)c2c3cc(ccc31)-c1csc(n1)C[C@H](NC(=O)[C@H](C(C)C)N(C)C(=O)N1CC[C@]3(CCNC3=O)C1)C(=O)N1CCC[C@H](N1)C(=O)OCC(C)(C)C2
Reply: 6.00 to 7.00

Query: // pIC50 lookup, key: CCn1c(-c2cccnc2[C@H](C)OC)c2c3cc(ccc31)-c1csc(n1)C[C@H](NC(=O)[C@H](C(C)C)N(C)C(=O)N1C[C@@H]3[C@@H](C1)OCCN3C)C(=O)N1CCC[C@H](N1)C(=O)OCC(C)(C)C2
Reply: 6.00 to 7.00

Query: // pIC50 lookup, key: CCn1c(-c2cnccc2COC)c2c3cc(ccc31)-c1cc(O)cc(c1)C[C@H](NC(=O)[C@H](C(C)C)N(C)C(=O)[C@@H](C)O)C(=O)N1CCC[C@H](N1)C(=O)OCC(C)(C)C2
Reply: 5.00 to 6.00

Query: // pIC50 lookup, key: CCn1c(-c2cccnc2[C@H](C)OC)c2c3cc(ccc31)-c1cc(O)cc(c1)C[C@H](NC(=O)[C@H](C(C)C)N(C)C(=O)C1(C(F)F)CCCO1)C(=O)N1CCC[C@H](N1)C(=O)OCC(C)(C)C2 (stereo partly drawn)
Reply: 6.00 to 7.00

Query: // pIC50 lookup, key: CCn1c(-c2cccnc2[C@H](C)OC)c2c3cc(ccc31)-c1csc(n1)C[C@H](NC(=O)[C@H](C(C)C)N(C)C(=O)N1CC3(CC(N(C)C4COC4)C3)C1)C(=O)N1CCC[C@H](N1)C(=O)OCC(C)(C)C2
Reply: 6.00 to 7.00

Query: // pIC50 lookup, key: CCn1c(-c2cccnc2[C@H](C)OC)c2c3cc(ccc31)-c1csc(n1)C[C@H](NC(=O)[C@H](C(C)C)N(C)C(=O)N1CCN(C)CC13CC3)C(=O)N1CCC[C@H](N1)C(=O)OCC(C)(C)C2
Reply: 5.00 to 6.00

Query: // pIC50 lookup, key: CCn1c(-c2cccnc2[C@H](C)OC)c2c3cc(ccc31)-c1csc(n1)C[C@H](NC(=O)[C@H](C(C)C)N(C)C(=O)N1CCOC[C@@H]1C)C(=O)N1CCC[C@H](N1)C(=O)OCC(C)(C)C2
Reply: 6.00 to 7.00

Query: // pIC50 lookup, key: CCn1c(-c2cccnc2[C@H](C)OC)c2c3cc(ccc31)-c1csc(n1)C[C@H](NC(=O)[C@H](C(C)C)N(C)C(=O)N(C)C[C@H]1CCN1C)C(=O)N1CCC[C@H](N1)C(=O)OCC(C)(C)C2
Reply: 6.00 to 7.00

Query: // pIC50 lookup, key: CCn1c(-c2cccnc2[C@H](C)OC)c2c3cc(ccc31)-c1cc(O)cc(c1)C[C@H](NC(=O)C(C)Cc1ccncc1)C(=O)N1CCC[C@H](N1)C(=O)OCC(C)(C)C2 (stereo partly drawn)
Reply: 6.00 to 7.00

Query: // pIC50 lookup, key: CCn1c(-c2cccnc2[C@H](C)OC)c2c3cc(ccc31)-c1cc(O)cc(c1)C[C@H](NC(=O)[C@H](C(C)C)N(C)C(=O)[C@H]1CCN(C(=O)[C@@H]3CCCN3)C1)C(=O)N1CCC[C@H](N1)C(=O)OCC(C)(C)C2
Reply: 7.00 to 8.00

Query: // pIC50 lookup, key: CCn1c(-c2cccnc2[C@H](C)OC)c2c3cc(ccc31)-c1cc(O)cc(c1)C[C@H](NC(=O)[C@H](C(C)C)N(C)C(=O)[C@H]1CC[C@@H]1N)C(=O)N1CCC[C@H](N1)C(=O)OCC(C)(C)C2
Reply: 7.00 to 8.00

Query: // pIC50 lookup, key: CCn1c(-c2cccnc2[C@H](C)OC)c2c3cc(ccc31)-c1cc(O)cc(c1)C[C@H](NC(=O)[C@@H]1[C@H](C)CCN1C(C)=O)C(=O)N1CCC[C@H](N1)C(=O)OCC(C)(C)C2
Reply: 6.00 to 7.00

Query: // pIC50 lookup, key: CCn1c(-c2cccnc2[C@H](C)OC)c2c3cc(ccc31)-c1cc(O)cc(c1)C[C@H](NC(=O)[C@H](C(C)C)N(C)C(=O)C1Cc3nccn3C1)C(=O)N1CCC[C@H](N1)C(=O)OCC(C)(C)C2 (stereo partly drawn)
Reply: 7.00 to 8.00

Query: // pIC50 lookup, key: CCn1c(-c2cccnc2[C@H](C)OC)c2c3cc(ccc31)-c1cc(O)cc(c1)C[C@H](NC(=O)[C@H](C(C)C)N(C)C(=O)C1CCc3ncccc3C1)C(=O)N1CCC[C@H](N1)C(=O)OCC(C)(C)C2 (stereo partly drawn)
Reply: 7.00 to 8.00

Query: // pIC50 lookup, key: CCn1c(-c2cccnc2[C@H](C)OC)c2c3cc(ccc31)-c1csc(n1)C[C@H](NC(=O)[C@H](C(C)C)N(C)C(=O)N1CC(C3COC3)C1)C(=O)N1CCC[C@H](N1)C(=O)OCC(C)(C)C2
Reply: 7.00 to 8.00
